# System: SN12C renal
# TEST DETAILS: NCI tumour cell line growth inhibition, 48 h; in the data active = GI50 below about 0.43 µM; inactive = the rest
Select the correct class. Options are 1.0 for active, 0.0 for inactive and nothing else.

# COMPOUND, CLASS NAME
data = [
    ("COC(=O)c1c(C(=O)O)c(-c2ccccc2)c(-c2ccccc2)c(-c2ccccc2)c1-c1ccccc1", 0.0),
    ("Fc1ccc(-c2ncn(C3CCNCC3)c2-c2ccnc(Oc3ccc(Cl)cc3)n2)cc1", 0.0),
    ("COc1ccc(-c2cn3ccnc3c(-c3ccc(Cl)cc3)n2)cc1", 0.0),
]

## Input What did the test return for N#C/C(=C/C=C/c1cccc(Cl)c1)S(=O)c1ccccc1 (stereo not given) ?
## Output 1.0

## Input Record: Cc1cc(C)c(-c2c(O)c(Br)c(-c3c(C)cc(C)c(Br)c3C)c(O)c2Br)c(C)c1Br
## Output 0.0

----------
# Test system: SF-268 CNS
# TEST DETAILS: NCI tumour cell line growth inhibition, 48 h
The entries below are paired with their reported GI50.

# COMPOUND, SYSTEM NAME, GI50
records = [
    ("Fc1ccc(-c2ncn(C3CCNCC3)c2-c2ccnc(Oc3ccc(Cl)cc3)n2)cc1", "SF-268 CNS", "8.67 µM"),
]

## Input # get_value(readout='GI50', item= CCOC(=O)c1sc(NC(=O)COc2ccc(/C=C3\CCc4cc(OC)ccc4C3=O)cc2)nc1C )
## Output 11.4 µM

## Input Record: O=C(OCC1=CC(=O)c2ccccc2C1=O)c1ccccc1
## Output 14.1 µM

## Input Record: COc1ccc(C(=O)c2ccccc2)c(O)c1
## Output 55.2 µM

## Input Record: COc1ccc(C2=NNC(c3sc(Cl)nc3Cl)C2)cc1 (stereo unspecified)
## Output 5.65 µM

## Input Record: COC1CCC(OC)C(c2nc3sccn3c2/C=N/N=C(N)N)C1 (stereo unspecified)
## Output 18.5 µM

----------
The entries below are paired with their reported TGI.
# Test system: SF-539 CNS
# TEST DETAILS: NCI tumour cell line growth inhibition, 48 h

# COMPOUND, TGI
data = [
    ("CC1(C)Cc2ccccc2C(C)(Cl)C(=O)N1 (stereo not given)", "> 10 µM"),
    ("C/C(N=NS(=O)(=O)c1c(C)cc(C)cc1C)=C1\\C=CC=CN1O", "> 100 µM"),
    ("N.N.N.N.O=S([O-])[O-].[Co+3].[N-]=[N+]=[N-]", "> 100 µM"),
    ("O=C(NCCCN1CCN(CCCNC(=O)Nc2cc(Cl)ccc2Cl)CC1)Nc1cc(Cl)ccc1Cl", "> 100 µM"),
    ("CCC1OC2(C)CC(C#N)(C#N)C1(C#N)C(=N)O2 (stereo not given)", "> 100 µM"),
    ("O=C1c2ccccc2-c2c1c1ccccc1c(=O)n2CCNCCNCCNCCNCCn1c2c(c3ccccc3c1=O)C(=O)c1ccccc1-2", "0.314 µM"),
    ("C#CCn1c(I)cc2c(c1=O)COC(=O)[C@]2(O)CC", "> 100 µM"),
    ("CC1=NN(c2ccccc2)C(=O)/C1=C\\c1c(C)[nH]n(-c2ccccc2)c1=O", "> 100 µM"),
    ("NCCOCCOCC(=O)O", "> 100 µM"),
    ("COc1ccc(N=c2nc3sc4cc(Cl)ccc4n3c(N)c2C#N)cc1", "> 100 µM"),
]

Now consider the entry below.
## Input # get_value(readout='TGI', item= CCOC(=O)c1cnc2n(c1=O)[C@H]1CCCC[C@@H]1N2 )
## Output > 100 µM

----------
# Test system: BT-549 breast
# TEST DETAILS: NCI tumour cell line growth inhibition, 48 h
The entries below are paired with their reported TGI.
Report only the number, with the unit µM understood.

Use the examples below as a reference point.
# SMILES NOTATION, TGI, µM
records = [
    ("CN(C)CCN=c1nc2c(c(N)n1-c1ccccc1)c(=S)n(-c1ccccc1)c(=S)n2-c1ccccc1", 13.3),
    ("Fc1ccc(-c2ncn(C3CCNCC3)c2-c2ccnc(Oc3ccc(Cl)cc3)n2)cc1", 18.8),
]

Now consider the entry below.
## Input # get_value(readout='TGI', item= CCN(CC)CC[n+]1ccc2c(C)c3[nH]c4ccccc4c3c(C)c2c1 )
## Output 4.95

----------
# Test system: SNB-19 CNS
# TEST DETAILS: NCI tumour cell line growth inhibition, 48 h; in the data active means GI50 below about 0.43 µM; inactive means the rest
Select the correct class. Options are active, inactive and nothing else.

# COMPOUND, SYSTEM NAME, CLASS NAME
records = [
    ("COc1cccc(C2C(C#N)=C(N)Oc3cc(OCCCCCC[P+](c4ccccc4)(c4ccccc4)c4ccccc4)ccc32)c1 (stereo unspecified)", "SNB-19 CNS", "active"),
    ("C=C(CN1CCN(c2ccccn2)CC1)c1ccc(C(=O)Nc2ccccc2N)cc1", "SNB-19 CNS", "inactive"),
    ("S=C(Nc1ccc(-c2nc3ccccc3s2)cc1)Nc1ccc(-c2nc3ccccc3s2)cc1", "SNB-19 CNS", "inactive"),
]

## Input What did the test return for Fc1ccc(-c2ncn(C3CCNCC3)c2-c2ccnc(Oc3ccc(Cl)cc3)n2)cc1 ?
## Output inactive

## Input Record: COC(=O)c1c(C(=O)O)c(-c2ccccc2)c(-c2ccccc2)c(-c2ccccc2)c1-c1ccccc1
## Output inactive

## Input Record: COc1ccc(C(=O)Cn2c(C(=O)c3ccc(Cl)cc3)nc(-c3ccccc3)c2-c2ccccc2)cc1
## Output inactive

----------
# System: M14 melanoma
# TEST DETAILS: NCI tumour cell line growth inhibition, 48 h
MEASURED METRIC: TGI

Use the examples below as a reference point.
# MOLECULE, TGI
data = [
    ("Cc1noc(-c2ccc(C(=O)O)[nH]2)c1Br", "> 100 µM"),
    ("Cc1ccc(N=Nc2c(O)ccc3ccccc23)c(C)c1", "> 100 µM"),
    ("CN(CCOc1ccc(NS(C)(=O)=O)cc1)CCc1ccc(NS(C)(=O)=O)cc1", "> 100 µM"),
    ("Cc1c(C(=O)O)sc2nc[nH]c(=O)c12", "> 100 µM"),
    ("CCNC1CC(n2cc(C)c(=O)[nH]c2=O)OC1CO (stereo not drawn)", "> 100 µM"),
]

Now consider the entry below.
## Input # get_value(readout='TGI', item= COc1cc(C=NCC(=O)CSC(c2ccccc2)c2ccccc2)ccc1O )
## Output 25.9 µM

----------
# System: SNB-75 CNS
# TEST DETAILS: NCI tumour cell line growth inhibition, 48 h
MEASURED METRIC: TGI

Use the examples below as a reference point.
# MOLECULE, SYSTEM NAME, TGI
data = [
    ("CC1(C)CC(=O)C2=C(C1)NC(=S)C(C#N)C2c1ccccc1 (stereo not given)", "SNB-75 CNS", "> 100 µM"),
    ("COC(=O)CCC(NC(=S)N/N=C(\\C)c1cccs1)C(=O)OC (stereo not given)", "SNB-75 CNS", "> 100 µM"),
]

## Input Observed TGI on SNB-75 CNS for CC(C)C(Br)C(=O)NCC(=O)O (stereo not given) , please.
## Output > 100 µM

## Input Record: O=C([O-])C([O-])C([O-])C(=O)[O-].[Co+3].c1ccc(-c2ccnc3c2ccc2c(-c4ccccc4)ccnc23)cc1.c1ccc(-c2ccnc3c2ccc2c(-c4ccccc4)ccnc23)cc1.c1ccc(-c2ccnc3c2ccc2c(-c4ccccc4)ccnc23)cc1
## Output > 100 µM

## Input Record: C=CCN1C(=O)C[C@H](Cc2ccccc2)NC(=O)C[C@H](Cc2ccccc2)N(CC=C)C(=O)C[C@H](Cc2ccccc2)NC(=O)C[C@@H]1Cc1ccccc1
## Output 50.1 µM

## Input Record: COc1ccc(-c2c(/C=N/OCC(=O)O)c3sc4ccccc4n3c2/C=N/OCC(=O)O)cc1
## Output > 50 µM

## Input Record: O=C(Cc1nc2ccccc2s1)C(=O)Nc1cccc(C(F)(F)F)c1
## Output > 100 µM

## Input Record: COc1ccc2c(c1)[n+](=O)c(/C=C/C(=O)c1cc(OC)c(OC)c(OC)c1)c(C)n2[O-]
## Output 43.1 µM

## Input Record: COc1c(OC2OC(C)C(O)C(O)C2O)c(OC)c2oc(-c3ccc(O)cc3)cc(=O)c2c1O (stereo not given)
## Output 87.1 µM

## Input Record: COc1ccc2c(CN3CCCC[C@H]3O)cc3cc4c(cc3c2c1)OCO4
## Output 1.86 µM

## Input Record: CN1COCN=C1NC#N
## Output > 100 µM

## Input Record: OC(Cc1cccc2ccccc12)CN1CCC(c2ccccc2)CC1 (stereo not given)
## Output 25.3 µM

## Input Record: C[C@@H]1C[C@@H]2OC(=O)[C@]3(C)[C@H]2[C@@H](OC3(C)O)[C@]2(C)C(=O)C=C[C@@H]12 (stereo not given in full)
## Output > 100 µM

## Input Record: COC(=O)c1c(C(=O)O)c(-c2ccccc2)c(-c2ccccc2)c(-c2ccccc2)c1-c1ccccc1
## Output > 100 µM

## Input Record: CCOP(=O)(OCC)C(c1ccccc1)N(C(=O)NC(F)(F)F)c1ccc(C)cc1 (stereo not given)
## Output > 100 µM

## Input Record: CCN(CC)c1ccc(/C=N/N=C(N)N)cc1
## Output > 100 µM

## Input Record: COC(=O)[C@@H]1C=CCN1S(=O)(=O)c1ccc(C)cc1
## Output > 100 µM

## Input Record: Cc1cc(C)c(-c2c(O)c(Br)c(-c3c(C)cc(C)c(Br)c3C)c(O)c2Br)c(C)c1Br
## Output 10.3 µM

## Input Record: OC[C@H]1N[C@H](CO)[C@@H](O)[C@H]1O
## Output > 100 µM

## Input Record: Cc1cc(NS(=O)(=O)c2ccc(Nc3c4ccccc4nc4c(C(=O)NC(CO)(CO)CO)cccc34)cc2)no1
## Output 55.1 µM

## Input Record: COC(=O)CCCc1nc2ccccc2nc1N=Nc1ccccc1
## Output > 100 µM

## Input Record: Cc1c2oc(=O)c(C#N)cc2c2ccccn12
## Output > 100 µM

## Input Record: CCOC(=O)/C=C/c1ccc([N+](=O)[O-])o1
## Output 94 µM

## Input Record: CC(=O)N1CCOC12N=NC(C)(C)O2 (stereo not given)
## Output > 100 µM

## Input Record: C[C@]12CC[C@H]3[C@@H](CC=C4C[C@@H](O)CC[C@@]43C)[C@@H]1C/C(=C\c1ccc([N+](=O)[O-])cc1)[C@@H]2O
## Output 32.1 µM

## Input Record: COC1CCC(CO)OO1 (stereo not given)
## Output > 100 µM

## Input Record: C=C1c2nc3ccccc3n2C=C(c2ccccc2)N1c1ccc(C)cc1
## Output > 100 µM
